Give measured kon for each item. Keep answers brief.
# Measurement target: T1, human CD8 (captured on the Octet biosensor) (human, UniProt P01732 22-182, limits assumed)
# T1 construct: Construct not described; also called recombinant human CD8a
# T1 sequence (P01732 22-182 limits assumed): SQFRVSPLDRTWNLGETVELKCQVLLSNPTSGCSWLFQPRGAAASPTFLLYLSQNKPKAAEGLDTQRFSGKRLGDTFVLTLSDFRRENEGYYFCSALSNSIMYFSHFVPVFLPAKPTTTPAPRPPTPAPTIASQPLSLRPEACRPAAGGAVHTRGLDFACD
# Protocol summary: Octet (BLI); human CD8 captured, dipped into multiple concentrations of the one-arm mAb
Kindly answer with a numeric value in M⁻¹ s⁻¹, unit omitted.

Q: Fill in the blank: the reported kon of XENP26243 (antibody, V domains shown, also called OKT8_H2.166_L1.103 one-arm mAb) VH: QVQLVQSGAEVKKPGASVKVSCKASGFNIKDTYIHWVRQAPGKGLEWMGRIDPDNDETLYASKFQGRVTMTADTSINTAYMELSRLRSDDTAVYYCGRGWGYYVFDHWGQGTTVTVSS VL: AIKMTQSPSSLSASVGDRVTITCRTSRSISKYLAWYQEKPGKTNKLLIYSGSTLQSGIPSRFSGSGSGTDFTLTISSLQPEDFATYYCQQHNENPLTFGAGTKLEIK is ____.
Ans: 626000

Q: Queued: XENP26234 (antibody, V domains shown, also called OKT8_H2.157_L1.103 one-arm mAb) VH: QVQLVQSGAEVKKPGASVKVSCKASGFNIKDTYIHWVRQAPGKGLEWMGRIDPDNGETLYASKFQGRVTMTADTSINTAYMELSRLRSDDTAVYYCGRGYGKYVFDHWGQGTTVTVSS VL: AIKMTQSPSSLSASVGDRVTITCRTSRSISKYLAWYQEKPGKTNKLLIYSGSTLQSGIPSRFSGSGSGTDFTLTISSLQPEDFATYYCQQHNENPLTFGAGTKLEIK
Ans: 258000

Q: Queued: XENP26235 (antibody, V domains shown, also called OKT8_H2.158_L1.103 one-arm mAb) VH: QVQLVQSGAEVKKPGASVKVSCKASGFNIKDTYIHWVRQAPGKGLEWMGRIDPDNGETLYASKFQGRVTMTADTSINTAYMELSRLRSDDTAVYYCGRGYGYYYFDHWGQGTTVTVSS VL: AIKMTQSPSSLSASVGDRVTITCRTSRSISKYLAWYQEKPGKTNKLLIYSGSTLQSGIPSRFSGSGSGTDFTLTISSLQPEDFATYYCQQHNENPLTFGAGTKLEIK
Ans: 718000

Q: Queued: XENP26231 (antibody, V domains shown, also called OKT8_H2.154_L1.103 one-arm mAb) VH: QVQLVQSGAEVKKPGASVKVSCKASGFNIKDTYIHWVRQAPGKGLEWMGRIDPDNGETLYASKFQGRVTITADTSINTAYMELSRLRSDDTAVYYCGRGYGKYVFDHWGQGTTVTVSS VL: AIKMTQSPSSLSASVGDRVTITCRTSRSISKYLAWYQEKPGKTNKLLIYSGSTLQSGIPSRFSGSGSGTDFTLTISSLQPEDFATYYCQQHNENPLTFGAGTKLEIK
Ans: 236000

Q: Queued: XENP26238 (antibody, V domains shown, also called OKT8_H2.161_L1.103 one-arm mAb) VH: QVQLVQSGAEVKKPGASVKVSCKASGFNIKDTYIHWVRQAPGKGLEWMGRIDPDNDETLYASKFQGRVTITADTSINTAYMELSRLRSDDTAVYYCGRGYGKYVFDHWGQGTTVTVSS VL: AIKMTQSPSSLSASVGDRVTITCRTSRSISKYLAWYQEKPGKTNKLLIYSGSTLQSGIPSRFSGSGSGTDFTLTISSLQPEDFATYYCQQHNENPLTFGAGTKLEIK
Ans: 271000

Q: Queued: XENP26241 (antibody, V domains shown, also called OKT8_H2.164_L1.103 one-arm mAb) VH: QVQLVQSGAEVKKPGASVKVSCKASGFNIKDTYIHWVRQAPGKGLEWMGRIDPDNDETLYASKFQGRVTMTADTSINTAYMELSRLRSDDTAVYYCGRGYGKYVFDHWGQGTTVTVSS VL: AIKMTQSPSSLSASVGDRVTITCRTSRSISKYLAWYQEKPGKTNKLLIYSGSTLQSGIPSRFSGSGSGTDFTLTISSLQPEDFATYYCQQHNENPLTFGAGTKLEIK
Ans: 265000
